Test system: PC-3
Test: NCI tumour cell line growth inhibition, 48 h
The source made the active and inactive calls. Cut-off read from the data, not from the text of the source: active = GI50 up to about 1.1 µM and inactive = higher.
reported endpoint: GI50

{"compound": "Nc1n[n+]([O-])c2cc([N+](=O)[O-])ccc2[n+]1[O-]", "target or test system": "PC-3", "GI50": "2.19 µM (inactive)"}
{"compound": "N#CC1C(=O)Nc2sc(C(=O)c3ccc(Br)cc3)c(N)c2C12CCCCC2 (centres undefined)", "target or test system": "PC-3", "GI50": "10.4 µM (inactive)"}
{"compound": "c1ccc(CN2COc3c(ccc4c5c(ccc34)CN(Cc3ccccc3)CO5)C2)cc1", "target or test system": "PC-3", "GI50": "> 100 µM (inactive)"}

Asked: Would you kindly share the measured GI50 for CC1(C)CCCC2OC2CCC(C)(C)C1=O (centres undefined) ?
Given back: > 100 µM (inactive)

Asked: What about NN/C(=N\S(=O)(=O)c1cc(S(=O)(=O)c2ccccc2)cs1)Nc1ccc(Cl)cc1 ?
Given back: 23.3 µM (inactive)

Asked: Now this one: O=C(c1ccccc1)c1ccc2nc3n(c2c1)C(c1c(F)cccc1F)SC3 (centres undefined)
Given back: 6.89 µM (inactive)

Asked: Here is the next compound: COC(=O)[C@H](Cc1c[nH]c2ccccc12)NC(=O)c1ccccc1I
Given back: 24.6 µM (inactive)

Asked: Can you check C[C@H](CSC(=O)c1ccccc1)C(=O)N1c2ccccc2C[C@H]1C(=O)O next?
Given back: > 100 µM (inactive)

Asked: Please answer likewise for Oc1cccc2cc(Br)cnc12
Given back: 6.68 µM (inactive)

Asked: Another: CC1=C2C(=C[C@H]3[C@]4(C)CCCC(C)(C)[C@H]4CC[C@]34O[C@H]24)OC1=O
Given back: > 100 µM (inactive)

Asked: Then c1ccc([P+](c2ccccc2)(c2ccccc2)C2c3ccccc3-c3ccccc32)cc1 ?
Given back: 1.47 µM (inactive)

Asked: COc1ccc(/N=N/c2c(-c3c(OC)cc4occc4c3OC)[nH]c(=O)c(C#N)c2C)cc1 ?
Given back: > 100 µM (inactive)

Asked: Another compound: CN1CCN(c2ncc3c(n2)sc2c(=O)n(-c4ccccc4)cnc23)CC1
Given back: > 100 µM (inactive)

Asked: What about C/C(=N\NC(=S)NCc1ccccc1)c1nc2cccnc2[nH]1 ?
Given back: 8.95 µM (inactive)

====

System: MCF7
Assay: NCI tumour cell line growth inhibition, 48 h
Calls of active or inactive are those of the source. Rule as the data show it: active = GI50 up to about 1.1 µM and inactive = higher.
GI50 values, listed per item

Observe how each entry below is paired with its result.
{"compound": "CC(O)CNC(=O)Nc1c(C(F)(F)F)cc(-c2ccccc2)[nH]c1=O (stereo not given)", "GI50": "> 100 µM (inactive)"}
{"compound": "CC(=O)Oc1ccc2c3c1[C@@H]1O[C@@H]1c1cccc(c1-3)[C@@H]1O[C@H]21", "GI50": "2.55 µM (inactive)"}
{"compound": "C[C@H]1S[C@H](c2c(F)cccc2F)n2c1nc1ccccc12", "GI50": "33.8 µM (inactive)"}

Asked: Quick check: GI50 of Cc1ccc(O)c(Cc2nc3ccccc3nc2-c2cccc(Cl)c2)c1 ?
Given back: 40.8 µM (inactive)

Asked: Query CC(NNC(=O)c1cc[n+]([BH2-]C#N)cc1)c1ccc(F)cc1 (stereo not given) next
Given back: > 100 µM (inactive)

The values you see were collected from ChEMBL document CHEMBL1201862.
